meta.source: PubChem BioAssay AID1963420

- System: 494315-158-R-J1-PDC complex spheroid growth, percent test/control
- PROTOCOL TEXT: Anticancer human tumor 494315-158-R-J1-PDC patient-derived soft tissue sarcoma cell line growth inhibition [Asc]
- CONDITION NOTES: second compound 0.1 µM; first compound 0.949 µM; active compounds read low
ATTRIBUTE MEASURED: viability, T/C (%)
Expressed in %, but write only the number.

1) CCN1C(C(=O)NC23CCC(C(=O)O)(CC2)CC3)C(c2cccc(Cl)c2F)C2(C(=O)Nc3cc(Cl)ccc32)C12CCCCC2 (centres undefined) + CNC(C)C(=O)NC1CN(S(=O)(=O)c2cccc(S(=O)(=O)N3CCC4CCC(C(=O)NC(c5ccccc5)c5ccccc5)N4C(=O)C(NC(=O)C(C)NC)C3)c2)CCC2CCC(C(=O)NC(c3ccccc3)c3ccccc3)N2C1=O ... 47.1
2) Cc1nc(N2CCC3(CC2)COC(C)C3N)c(CO)nc1Sc1ccnc(N)c1Cl (centres undefined) + Cc1c(S(C)(=O)=O)c(-c2cc(F)cc(N3CCN(c4ccc(NS(=O)(=O)c5ccc(NC(CCN6CCC(C(=O)OCCCP(=O)(O)O)CC6)CSc6ccccc6)c(S(=O)(=O)C(F)(F)F)c5)cc4)CC3)c2)c(-c2ccc(Cl)cc2)n1C(C)C ... 40.5
3) Cc1nc(N2CCC3(CC2)COC(C)C3N)c(CO)nc1Sc1ccnc(N)c1Cl (centres undefined) + CNC(C)C(=O)NC1CN(S(=O)(=O)c2cccc(S(=O)(=O)N3CCC4CCC(C(=O)NC(c5ccccc5)c5ccccc5)N4C(=O)C(NC(=O)C(C)NC)C3)c2)CCC2CCC(C(=O)NC(c3ccccc3)c3ccccc3)N2C1=O ... 59.1

Given the entry CCN1C(C(=O)NC23CCC(C(=O)O)(CC2)CC3)C(c2cccc(Cl)c2F)C2(C(=O)Nc3cc(Cl)ccc32)C12CCCCC2 (centres undefined) + Cc1c(S(C)(=O)=O)c(-c2cc(F)cc(N3CCN(c4ccc(NS(=O)(=O)c5ccc(NC(CCN6CCC(C(=O)OCCCP(=O)(O)O)CC6)CSc6ccccc6)c(S(=O)(=O)C(F)(F)F)c5)cc4)CC3)c2)c(-c2ccc(Cl)cc2)n1C(C)C , report its measured viability, T/C.
77.4

* * *

- Test system: 494315-158-R-J1-PDC complex spheroid growth, percent test/control
- PROTOCOL TEXT: Anticancer human tumor 494315-158-R-J1-PDC cell line growth inhibition [Asc];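 note: compound exposure lasted seven days after spheroids formed for three days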
- CONDITION NOTES: second compound 0.0316 µM; first compound 0.316 µM; active compounds read low
# key: entry, value: viability, T/C
Expressed in %, but write only the number.

1) COc1c(OCCCN2CCOCC2)ccc2c3n(c(=NC(=O)c4cnc(N)nc4)nc12)CCN3 + CNC(C)C(=O)NC1CN(S(=O)(=O)c2cccc(S(=O)(=O)N3CCC4CCC(C(=O)NC(c5ccccc5)c5ccccc5)N4C(=O)C(NC(=O)C(C)NC)C3)c2)CCC2CCC(C(=O)NC(c3ccccc3)c3ccccc3)N2C1=O ... 14
2) O=C(c1ccc(F)c(F)c1Nc1ccc(I)cc1F)N1CC(O)([C@@H]2CCCCN2)C1 + CNC(C)C(=O)NC1CN(S(=O)(=O)c2cccc(S(=O)(=O)N3CCC4CCC(C(=O)NC(c5ccccc5)c5ccccc5)N4C(=O)C(NC(=O)C(C)NC)C3)c2)CCC2CCC(C(=O)NC(c3ccccc3)c3ccccc3)N2C1=O ... 87.8
3) C#Cc1c(F)ccc2cc(O)cc(-c3ncc4c(N5CC6CCC(C5)N6)nc(OCC56CCCN5CC(F)C6)nc4c3F)c12 (configuration not stated) + CNC(C)C(=O)NC1CN(S(=O)(=O)c2cccc(S(=O)(=O)N3CCC4CCC(C(=O)NC(c5ccccc5)c5ccccc5)N4C(=O)C(NC(=O)C(C)NC)C3)c2)CCC2CCC(C(=O)NC(c3ccccc3)c3ccccc3)N2C1=O ... 71.6
4) C=C(F)C(=O)N1CCN(c2nc(OCC3CCCN3C)nc3c2CCN(c2cccc4cccc(Cl)c24)C3)CC1CC#N (configuration not stated) + CNC(C)C(=O)NC1CN(S(=O)(=O)c2cccc(S(=O)(=O)N3CCC4CCC(C(=O)NC(c5ccccc5)c5ccccc5)N4C(=O)C(NC(=O)C(C)NC)C3)c2)CCC2CCC(C(=O)NC(c3ccccc3)c3ccccc3)N2C1=O ... 46.2
5) C=CC(=O)N1CCN(c2nc(=O)n(-c3c(C)ccnc3C(C)C)c3nc(-c4c(O)cccc4F)c(F)cc23)C(C)C1 (configuration not stated) + CNC(C)C(=O)NC1CN(S(=O)(=O)c2cccc(S(=O)(=O)N3CCC4CCC(C(=O)NC(c5ccccc5)c5ccccc5)N4C(=O)C(NC(=O)C(C)NC)C3)c2)CCC2CCC(C(=O)NC(c3ccccc3)c3ccccc3)N2C1=O ... 57.6

Given the entry CCN1CCN(Cc2ccc(Nc3ncc(F)c(-c4cc(F)c5nc(C)n(C(C)C)c5c4)n3)nc2)CC1 + CNC(C)C(=O)NC1CN(S(=O)(=O)c2cccc(S(=O)(=O)N3CCC4CCC(C(=O)NC(c5ccccc5)c5ccccc5)N4C(=O)C(NC(=O)C(C)NC)C3)c2)CCC2CCC(C(=O)NC(c3ccccc3)c3ccccc3)N2C1=O , report its measured viability, T/C.
57.2

Given the entry O=C(c1cc(Cc2n[nH]c(=O)c3ccccc23)ccc1F)N1CCN(C(=O)C2CC2)CC1 + CNC(C)C(=O)NC1CN(S(=O)(=O)c2cccc(S(=O)(=O)N3CCC4CCC(C(=O)NC(c5ccccc5)c5ccccc5)N4C(=O)C(NC(=O)C(C)NC)C3)c2)CCC2CCC(C(=O)NC(c3ccccc3)c3ccccc3)N2C1=O , report its measured viability, T/C.
52.1
